Molecular target: human TLR9 (Homo sapiens (Human))
Sequence (Q9NR96 26-1032): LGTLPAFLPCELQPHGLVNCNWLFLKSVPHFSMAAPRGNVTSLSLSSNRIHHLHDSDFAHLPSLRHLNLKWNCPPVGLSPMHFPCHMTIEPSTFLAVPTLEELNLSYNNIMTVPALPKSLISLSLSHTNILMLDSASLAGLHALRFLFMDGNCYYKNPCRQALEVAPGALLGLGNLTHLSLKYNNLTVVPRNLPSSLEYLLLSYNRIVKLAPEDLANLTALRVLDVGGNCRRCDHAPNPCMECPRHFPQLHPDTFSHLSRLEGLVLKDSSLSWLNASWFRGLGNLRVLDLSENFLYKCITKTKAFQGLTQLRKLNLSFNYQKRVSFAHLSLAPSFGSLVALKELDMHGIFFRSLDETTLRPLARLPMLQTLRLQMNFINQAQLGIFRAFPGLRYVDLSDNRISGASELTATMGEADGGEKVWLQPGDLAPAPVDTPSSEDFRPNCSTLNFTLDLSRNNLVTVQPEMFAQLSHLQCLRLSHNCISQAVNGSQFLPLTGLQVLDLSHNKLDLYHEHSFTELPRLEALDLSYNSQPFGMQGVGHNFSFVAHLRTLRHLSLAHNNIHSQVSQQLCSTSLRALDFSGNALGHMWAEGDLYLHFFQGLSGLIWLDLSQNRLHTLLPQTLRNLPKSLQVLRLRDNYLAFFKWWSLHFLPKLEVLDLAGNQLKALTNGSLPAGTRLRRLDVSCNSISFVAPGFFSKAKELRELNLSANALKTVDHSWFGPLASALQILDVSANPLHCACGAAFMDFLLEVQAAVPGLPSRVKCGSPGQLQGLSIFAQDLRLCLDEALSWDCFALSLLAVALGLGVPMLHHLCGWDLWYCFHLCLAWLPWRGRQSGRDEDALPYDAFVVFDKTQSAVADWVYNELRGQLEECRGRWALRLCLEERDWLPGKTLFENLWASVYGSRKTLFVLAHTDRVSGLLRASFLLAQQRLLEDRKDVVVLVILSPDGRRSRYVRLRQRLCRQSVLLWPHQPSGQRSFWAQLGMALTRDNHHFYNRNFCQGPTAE
Assay: TLR9 inhibition reporter assay (HEK-Blue, SEAP)
Conditions: HEK-Blue cells overexpressing human TLR9, ODN2006 5 nM stimulation
pIC50: −log10 of the molar value.
Mark F for pIC50 values under 6, and T for everything at or above.

Example results:
Is pIC50 at least 6? Consider Cc1cc(-c2[nH]c3ccc(-c4cc5c(s4)CN(C)CC5)cc3c2C(C)C)ccn1
T

// same read-out, input: COc1ccc(-c2[nH]c3ccc(-c4nnc(Cc5c[nH]cn5)o4)cc3c2C(C)C)cc1OC
F

// same read-out, input: COc1ccc(-c2[nH]c3ccc(-c4cccc(C(=O)NCC#N)c4)cc3c2CC(F)(F)F)cc1OC
F

// same read-out, input: Cc1cc(-c2[nH]c3ccc(-c4nnc(C5CCCNC5)[nH]4)cc3c2C(C)C)ccn1 (centres unmarked) [Example 164]
F

// same read-out, input: Cc1cc(-c2[nH]c3ccc(-c4nnc(C5CCCN(C(C)C)C5)[nH]4)cc3c2C(C)C)ccn1 (centres unmarked) [Example 205]
T

// same read-out, input: CC(C)c1c(-c2ccnc3[nH]ncc23)[nH]c2ccc(-c3cccc(CO)c3)cc12
F

Let us examine a further case.
Is pIC50 at least 6? Consider COc1ccc(-c2[nH]c3ccc(-c4cnc(N5CCN(Cc6ccsc6)CC5)nc4)cc3c2C(C)C)cc1OC
F
